Reference source for all entries: ChEMBL document CHEMBL1156829

- Assay Comment: NOVARTIS: Inhibition Frequency Index (IFI) - the number of HTS assays where a compound showed > 50% inhibition/induction, expressed as a percentage of the number of assays in which the compound was tested.
- Format: functional
Whole data set: some 5,400 compounds, median “IFI” near 2, cut for the highest 2% near 22. Shown is part of a subset that was picked to be rich in the highest values.
Readout Label: IFI (%)
Just the number in %, nothing appended.

Task: For the molecule shown here, `COc1nc(C)nc(NC(=O)NC(=O)c2c(OC)ccc([N+](=O)[O-])c2OC)n1` , give the reported IFI.
Result: 2.61

Task: And for C=CCSC1=NC2(CC(c3ccccc3)c3cc(Cl)c(O)cc3O2)CC(C)(C)N1 (stereo unspecified) ?
Result: 0

Task: Okay, and CCC(c1nc2ccccc2c(=O)n1CC)N1CCN(C(=O)Nc2ccccc2C(F)(F)F)CC1 (stereo unspecified) ?
Result: 2.08

Task: Can you handle `CC[n+]1c(/C=C2\C=Cc3cc(C)ccc3N2C)ccc2cc(C)ccc21` next?
Result: 15.4

Task: Subsequent entry: Cc1ccc(C(=O)C(C)[n+]2ccc(N(C)C)cc2)cc1 (stereo unspecified)
Result: 0

Task: And for CCOC(=O)C1=C(C)NC2=C(C(=O)C(C(=O)OCC)C(c3ccccc3OC)C2)C1c1sccc1C (stereo unspecified) ?
Result: 3.49

Task: Let us now turn to `Cc1ccc(-c2cc(-c3cc(Cl)ccc3O)on2)cc1`
Result: 0

Task: Note, next up: `CC(/C=C/C(=O)NO)=C\[C@@H](C)C(=O)c1ccc(N(C)C)cc1`
Result: 22.6

Task: Next molecule up: `CCN1/C(=C/c2cccc[n+]2C)Sc2ccc(OC)cc21`
Result: 15.4

Task: Now the same for `O=c1cc[nH]c2cc(N3CCCCCC3)c(F)cc12`
Result: 0

Task: What about OC1(c2ccc3ccccc3c2)c2c(c3ccccc3c3ccccc23)C2=NCCN21 (stereo unspecified) ?
Result: 3.25

Task: Field entry: `CCN1C(=Cc2ccc3c4ccoc4ccc3[n+]2CC)C=Cc2c1ccc1occc21`
Result: 28.6

Task: Moving on to the next molecule: `Oc1ccc(-c2cncc(NCc3ccccc3)n2)cc1`
Result: 0

Task: And `CC(=O)c1ccc2c3c(onc13)-c1ccccc1C2=O` ?
Result: 0

Task: Then what about the molecule `O=S(=O)(NC1CCCC1)c1cccc2nonc12` ?
Result: 0

Task: Do the same for `CN(C)c1ccc(/C=C/C(=O)NC(=O)c2ccccc2O)cc1` please
Result: 10.6

Task: Input `Cc1ccc(S(=O)(=O)Oc2ccc(C=NN=C(N)N)cc2)cc1`
Result: 0

Task: What do we get for `CCC(/C=C1\Sc2ccc(OC)cc2N1CCCS(=O)(=O)O)=C\c1sc2ccc(OC)cc2[n+]1CCCS(=O)(=O)O` ?
Result: 22.7

Task: Now try `CCN1C(=Cc2sc3cc(NC(C)=O)ccc3[n+]2CC)C=Cc2cc(C)ccc21` .
Result: 7.69

Task: Also check CC1CCC(C(C)C)C(OC(=O)Cn2c(-c3ccccc3)[n+](C)c3ccccc32)C1 (stereo unspecified)
Result: 13.1

Task: Cool, now COc1ccc(-c2n(C)c3ccccc3[n+]2CC(=O)OC2CC(C)CCC2C(C)C)cc1 (stereo unspecified)
Result: 22.7
